Listed next: entries and their corresponding Population Apoptotic (%).
# System: HEK-293T
# protocol_text: Multiplex assay against HEK293T
# Assay type: toxicity, cell-based
# measurement_parameters: human, 48 h, 1 µM, compound concentration 1 uM, replicate 2
quantity_measured: Population Apoptotic (%)

molecule="CCn1c(-c2nonc2N)nc2cnc(Oc3cccc(NC(=O)c4ccc(OCCN5CCOCC5)cc4)c3)cc21 [GSK-269962A]" quantity_measured="Population Apoptotic (%)" reported=41
molecule=COc1cc2c(NC3CCN(C(C)C)CC3)nc(N3CCC(F)(F)CC3)nc2cc1OCCCN1CCCC1 quantity_measured="Population Apoptotic (%)" reported=17
molecule=CCc1cc2c(cc1CC)CC(NC[C@H](O)c1ccc(O)c3[nH]c(=O)ccc13)C2 quantity_measured="Population Apoptotic (%)" reported=22
molecule=CC(C)N1CCC(C)(C)c2cc(C#Cc3ccc(C(=O)O)cc3)ccc21 quantity_measured="Population Apoptotic (%)" reported=11
molecule=Cl.Cl.Nc1ncnc2c1c(-c1cccc(OCc3ccccc3)c1)cn2[C@H]1C[C@@H](CN2CCC2)C1 quantity_measured="Population Apoptotic (%)" reported=64
molecule=CC(=O)c1cc(-c2cc(C(=O)NC3CC3)ccc2C)c2ncccn12 quantity_measured="Population Apoptotic (%)" reported=8
molecule=CNc1oc(-c2cccc3ccccc23)nc1C#N quantity_measured="Population Apoptotic (%)" reported=18
